# ASSAY REMARKS: Determination of metabolic stability with human liver microsomes
# TEST PARAMETERS: human, pooled human liver microsomes, pH 7.6
ENDPOINT: half-life at 1 μM

Supply measured half-life at 1 μM of `CN1CCc2cc(-c3ccc(C[C@@H](C#N)NC(=O)[C@H]4N[C@@H]5CC[C@H]4C5)c(F)c3)ccc2C1=O` in your reply. > 2.17 h

Answer with the recorded half-life at 1 μM of N#C[C@H](Cc1ccc(N2CCN(CC3CCCO3)CC2)cc1F)NC(=O)[C@H]1N[C@@H]2CC[C@H]1C2 (stereo partly shown) only. > 2.17 h

Item `C[C@H]1CN(C)CCN1c1ccc(C[C@@H](C#N)NC(=O)[C@H]2N[C@@H]3CC[C@H]2C3)c(F)c1` : provide half-life at 1 μM 1.62 h

Given N#CC(Cc1cc2c(=O)[nH]c3ccc(F)cc3c2cc1F)NC(=O)[C@H]1N[C@@H]2CC[C@H]1C2 (stereo partly shown) , respond with its half-life at 1 μM. > 2.17 h

Look up and report measured half-life at 1 μM for this entry: CS(=O)(=O)c1cc(-c2ccc(CC(C#N)NC(=O)[C@H]3N[C@@H]4CC[C@H]3C4)c(F)c2)ccc1C#N (stereo partly shown) > 2.17 h

Fill in reported half-life at 1 μM for this entry: N#Cc1ccc(-c2ccc(CC(C#N)NC(=O)[C@H]3N[C@@H]4CC[C@H]3C4)c(F)c2)cc1F (stereo partly shown) > 2.17 h

Supply measured half-life at 1 μM of `N#C[C@H](Cc1ccc(-c2cc(C(N)=O)co2)cc1F)NC(=O)[C@H]1N[C@@H]2CC[C@H]1C2` in your reply. > 2.17 h

Note half-life at 1 μM for the compound shown: `CN1CC2(C1)CN(c1ccc(C[C@@H](C#N)NC(=O)[C@H]3N[C@@H]4CC[C@H]3C4)c(F)c1)C2` > 2.17 h

Quick one: give measured half-life at 1 μM for N#Cc1ccc2c(c1)[nH]c(=O)c1cc(CC(C#N)NC(=O)[C@H]3N[C@@H]4CC[C@H]3C4)c(F)cc12 (stereo partly shown) 1.57 h

Identify half-life at 1 μM associated with the compound `N#C[C@H](Cc1ccc(-c2cccc(S(=O)(=O)C3CC3)c2)cc1F)NC(=O)[C@H]1N[C@@H]2CC[C@H]1C2` 1.83 h

Check the records and state half-life at 1 μM for `CO[C@@H]1C[C@@H]2CN(c3ccc(C[C@@H](C#N)NC(=O)[C@H]4N[C@@H]5CC[C@H]4C5)c(F)c3)CCN2C1` > 2.17 h

Report half-life at 1 μM, nothing else, for this compound: `N#C[C@H](Cc1ccc(-c2cnn(C[C@@H]3CCCO3)c2)cc1F)NC(=O)[C@H]1N[C@@H]2CC[C@H]1C2` > 2.17 h

Answer with the recorded half-life at 1 μM for the compound listed here: N#CC(Cc1ccc(-c2cnc(Cl)cn2)cc1F)NC(=O)[C@H]1N[C@@H]2CC[C@H]1C2 (stereo partly shown) > 2.17 h

Using the record for CCC(O)Cc1cn(-c2ccc(C[C@@H](C#N)NC(=O)[C@H]3N[C@@H]4CC[C@H]3C4)c(F)c2)nn1 (stereo partly shown) , state its measured half-life at 1 μM. > 2.17 h

Quick one: give measured half-life at 1 μM for N#CC(Cc1ccc(-c2ccc3c(c2)NC(=O)C3)cc1F)NC(=O)[C@H]1N[C@@H]2CC[C@H]1C2 (stereo partly shown) > 2.17 h

Give the reported half-life at 1 μM for this compound. CCS(=O)(=O)c1ccc(-c2ccc(CC(C#N)NC(=O)[C@H]3N[C@@H]4CC[C@H]3C4)c(F)c2)cc1 (stereo partly shown) > 2 h

Tell me half-life at 1 μM reported for `CS(=O)(=O)c1ccc(-c2ccc(C[C@@H](C#N)NC(=O)[C@H]3N[C@@H]4CC[C@H]3C4)c(F)c2)cc1F` > 2.17 h

Answer with reported half-life at 1 μM of `N#C[C@H](Cc1ccc(N2CCN3CCC[C@H]3C2)cc1F)NC(=O)[C@H]1N[C@@H]2CC[C@H]1C2` > 2.17 h

Please supply the value of reported half-life at 1 μM for the item `CN1CCC2(CC1)CC(c1ccc(C[C@@H](C#N)NC(=O)[C@H]3N[C@@H]4CC[C@H]3C4)c(F)c1)C2` > 2.17 h

Supply half-life at 1 μM value. Item: `N#C[C@H](Cc1ccc(-c2ccc(=O)[nH]c2)cc1F)NC(=O)[C@H]1N[C@@H]2CC[C@H]1C2` > 2.17 h

Please indicate half-life at 1 μM recorded for `CNc1nc2cc(-c3ccc(C[C@@H](C#N)NC(=O)[C@H]4N[C@@H]5CC[C@H]4C5)c(F)c3)ccc2[nH]1` > 2.17 h

Tell me half-life at 1 μM reported for CC1CN(c2ccc(C[C@@H](C#N)NC(=O)[C@H]3N[C@@H]4CC[C@H]3C4)c(F)c2)C(C)CN1C (stereo partly shown) > 2.17 h

Report half-life at 1 μM, nothing else, for this compound: C[S+]([O-])c1ccc(-c2ccc(C[C@@H](C#N)NC(=O)[C@H]3N[C@@H]4CC[C@H]3C4)c(F)c2)cc1 (stereo partly shown) > 2.08 h

Report half-life at 1 μM for CN(C)C1CCCN(c2ccc(C[C@@H](C#N)NC(=O)[C@H]3N[C@@H]4CC[C@H]3C4)c(F)c2)C1 (stereo partly shown) 1.83 h

Item COCCN1CCN(c2ccc(C[C@@H](C#N)NC(=O)[C@H]3N[C@@H]4CC[C@H]3C4)c(F)c2)CC1C (stereo partly shown) : provide half-life at 1 μM > 2.17 h

Name the recorded half-life at 1 μM of the item `CN1CCN(C(=O)c2cc(-c3ccc(C[C@@H](C#N)NC(=O)[C@H]4N[C@@H]5CC[C@H]4C5)c(F)c3)cs2)CC1=O` in your answer. > 2.17 h

State its half-life at 1 μM: N#CC(Cc1ccc(-c2ccc3c(c2)CNC3=O)cc1F)NC(=O)[C@H]1N[C@@H]2CC[C@H]1C2 (stereo partly shown) > 2.17 h

Give half-life at 1 μM for `N#Cc1ccc(-c2ccc(C[C@@H](C#N)NC(=O)[C@H]3N[C@@H]4CC[C@H]3C4)c(F)c2)o1` > 2.17 h
